tested on: MS2 coat protein; test: apparent KD of MS2 coat protein; designed switch direction (-1 OFF switch, 1 ON switch): 1; higher = weaker reporter binding; settings: Eterna round: R95; input ligand: none
reported.metric: apparent KD of MS2 coat protein (nM)
Return type: number; implicit unit nM.

# query: apparent KD of MS2 coat protein of entry GCGGAACAUGAGGAUCACCCAUGUGGAGGGUGUAAAGGAUAUUAUAGAGAGAAGGUAGGGUAAGAAGGUUGCUGGG [JR_SS1_Sub090] (puzzle: Same State 1) 592

# query: apparent KD of MS2 coat protein of entry AGCGCGAUCUCGCAGGAUAUCCACAUUCCUACAUGAGGAUCACCCAUGUCGCUGCAGGAUAUUAGGGAGAAGGGUGAUGUCGCGC [Arxeinor] (puzzle: Same State 2) 34.8

# query: apparent KD of MS2 coat protein of entry GGUCCAGCCUGAGCUGGACAAAAGCAUGUACAUGAGGAUCACCCAUGUCAUGUACAAGCUUUUUGCUCGUCAAAAGG [Mat - hsa-mir-208a - 102] (puzzle: Sensor for hsa-mir-208a) 89.5

# query: apparent KD of MS2 coat protein of entry AUUAAACAUGAGGAUCACCCAUGUCAACAAAGUCGAGGAUAUGGGCAUAUUAUAUAAUAACCAGAAGGCGAAUAAU [salish99_ss1_r3_084] (puzzle: Same State 1) 13.8

# query: apparent KD of MS2 coat protein of entry GGUCCAGCCUGAGCUGGACCACAGCAUGUACAUGAGGAUCACCCAUGUCAUGUACAAGCUUUUUGUUUAACUUAAAA [Sensorship 12 - Jieux - Sensor for hsa-mir-208a] (puzzle: Sensor for hsa-mir-208a) 287

Reference source for all entries: the supplement of paper PMC9170038
